Values compiled from the supplement of paper PMC5949888.

Tested on: Saccharomyces cerevisiae PS128 hsf1 delta, HSF1(1-493) fusion
Assay: growth estimate (transactivation domain function in HSF1 fusion, heat-shock survival) (a.u. (slope of normalised read count over time)); higher = stronger growth at 37°C, i.e. more transactivation activity
Settings: library: design library
READOUT KIND: growth estimate
Give bare numbers.

// below: answered sequences
SEQUENCE ENTRY | growth estimate
EFNDRLDLDFILSN | -0.246
MLSSHGFSVDTSRLLDLFSP | -0.171
DFDRDMLGDFDLDMLG | 1.31
DLDESWDYIFETTA | 0.992
MLSSHAFSVDTSALLDLFSP | -0.157

Here are 3 sequences. What values of growth estimate were reported for them?
1. DGDESWDYIFETTE
2. PEFPGIELQELQELQALLGQ
3. QQNGEIAGLWDFN

Result:
[-0.219, -0.226, -0.148]

###

System: Saccharomyces cerevisiae PS128 hsf1 delta, HSF1(1-493) fusion
Assay: growth estimate (transactivation domain function in HSF1 fusion, heat-shock survival) (a.u. (slope of normalised read count over time)); higher = stronger growth at 37°C, i.e. more transactivation activity
Conditions: library: design library
Response key: yes means growth estimate >= -0.2; no means growth estimate < -0.2.

The examples below pair each entry with its known result.
SEQUENCE ENTRY | CLASSIFICATION
PFPDTQDDFLKWWRSEEGQ | yes
TMDDVYNRLFDD | no
DFDLDMGGDFDLDMLG | yes

Request: Kindly determine if growth estimate recorded for PFPRTQDDFLKWWRSEEAQ is above or exactly -0.2.
Result: no

Request: Kindly determine if growth estimate recorded for PFPDTQGDFLKWWRSEEAQ is above or exactly -0.2.
Result: no

###

Tested on: Saccharomyces cerevisiae PS128 hsf1 delta, HSF1(1-493) fusion
Assay: growth estimate (transactivation domain function in HSF1 fusion, heat-shock survival) (a.u. (slope of normalised read count over time)); higher = stronger growth at 37°C, i.e. more transactivation activity
Conditions: library: design library
Response key: criterion met means growth estimate >= -0.09; criterion not met means growth estimate < -0.09.

Request: Kindly determine if growth estimate recorded for EDDDAFSLWDSML is above or exactly -0.09.
Result: criterion met

###

Tested on: Saccharomyces cerevisiae PS128 hsf1 delta, HSF1(1-493) fusion
Assay: growth estimate (transactivation domain function in HSF1 fusion, heat-shock survival) (a.u. (slope of normalised read count over time)); higher = stronger growth at 37°C, i.e. more transactivation activity
Conditions: library: design library
Response key: Y means growth estimate >= 0.4; N means growth estimate < 0.4.

SEQUENCE ENTRY | CLASSIFICATION
MLSSAGFSVDTSALLDLFSP | N
DFDLDMLRDFDLDMLG | Y
VADDIWEKLLSEDL | Y
QQNGEIAQLWDFN | N
DELSWKIELLEKDG | N
DLDESWDYIFETTE | Y
DFDLDMLGDFDLDMPG | Y
PEFPGIELQELQALQALLQQ | N
VADDIWEELLSPDL | Y
MLSKHGFSVDTSALLDLFSP | N

Request: Kindly determine if growth estimate recorded for TMDDVYNYLFPD is above or exactly 0.4.
Result: Y

Request: Kindly determine if growth estimate recorded for DFDLDMLGGFDLDMLG is above or exactly 0.4.
Result: Y

###

Tested on: Saccharomyces cerevisiae PS128 hsf1 delta, HSF1(1-493) fusion
Assay: growth estimate (transactivation domain function in HSF1 fusion, heat-shock survival) (a.u. (slope of normalised read count over time)); higher = stronger growth at 37°C, i.e. more transactivation activity
Settings: library: design library
READOUT KIND: growth estimate
Give bare numbers.

// below: answered sequences
SEQUENCE ENTRY | MEAS VALUE
EDDDEFSLWASML | 2.21
MLSSHGFPVDTSALLDLFSP | -0.119
TMDDVYPYLFDD | 0.27
DELSWIIELLEKDA | 2.02
MLSSHGFSVDTSALPDLFSP | -0.23
MLSSHGFSVKTSALLDLFSP | -0.0119
MLSSHGFSVDTSALLKLFSP | -0.216
PFPDTQDDFLKWWKSEEAQ | -0.186

Here are 5 sequences. What values of growth estimate were reported for them?
1. PFPDTQDDFLKWWRSEEAP
2. EKDDEFSLWDSML
3. TMDDVYNYLFDK
4. DADLDMLGDFDLDMLG
5. EDDDEFSLWDSML

Result:
0.0281
-0.193
-0.18
0.604
1.95

###

Can you tell me growth estimate for the items I'm about to list?
Tested on: Saccharomyces cerevisiae PS128 hsf1 delta, HSF1(1-493) fusion
Experiment: growth estimate (transactivation domain function in HSF1 fusion, heat-shock survival) (a.u. (slope of normalised read count over time)); higher = stronger growth at 37°C, i.e. more transactivation activity
Details: library: design library
Answers are plain numbers.

SEQUENCE ENTRY | MEASUREMENT TARGET | growth estimate
MLSSHGFGVDTSALLDLFSP | Saccharomyces cerevisiae PS128 hsf1 delta, HSF1(1-493) fusion | -0.0322
LFDYDFLFGNGFA | Saccharomyces cerevisiae PS128 hsf1 delta, HSF1(1-493) fusion | 1.45

Here are 2 sequences. What values of growth estimate were reported for them?
1. EADDEFSLWDSML
2. EDDDEFSKWDSML

Result:
1: 0.306; 2: -0.228

###

Tested on: Saccharomyces cerevisiae PS128 hsf1 delta, HSF1(1-493) fusion
Test: growth estimate (transactivation domain function in HSF1 fusion, heat-shock survival) (a.u. (slope of normalised read count over time)); higher = stronger growth at 37°C, i.e. more transactivation activity
Settings: library: design library
Can you tell me growth estimate for the items I'm about to list?
One number for each entry.

// below: answered sequences
SEQUENCE ENTRY | MEASUREMENT TARGET | growth estimate
LFDYDFRFGNDFA | Saccharomyces cerevisiae PS128 hsf1 delta, HSF1(1-493) fusion | -0.0564
VADDIWEGLLSEDL | Saccharomyces cerevisiae PS128 hsf1 delta, HSF1(1-493) fusion | 0.676
MPSSHGFSVDTSALLDLFSP | Saccharomyces cerevisiae PS128 hsf1 delta, HSF1(1-493) fusion | 0.171

Here are 4 sequences. What values of growth estimate were reported for them?
1. LFDYDFLKGNDFA
2. DFDLDMPGDFDLDMLG
3. VADDIWEELLSEKL
4. DFDKDMLGDFDLDMLG

Result:
1. -0.139
2. 6.81
3. 3.04
4. 0.964

Here are 2 sequences. What values of growth estimate were reported for them?
1. EDDDEFSLWDKML
2. AQNGEIAQLWDFN

Result:
1: -0.201; 2: -0.205

Here are 6 sequences. What values of growth estimate were reported for them?
1. QQNGEIAQLWDRN
2. TMDDVYNYLFDR
3. EDDAEFSLWDSML
4. QQNGEIAQLWDPN
5. DLDEAWDYIFETTE
6. LFDYDFLFGNDFG

Result:
1. -0.121
2. -0.243
3. 0.0227
4. -0.246
5. 1.45
6. 0.038

###

Can you tell me growth estimate for the items I'm about to list?
Tested on: Saccharomyces cerevisiae PS128 hsf1 delta, HSF1(1-493) fusion
Assay: growth estimate (transactivation domain function in HSF1 fusion, heat-shock survival) (a.u. (slope of normalised read count over time)); higher = stronger growth at 37°C, i.e. more transactivation activity
Details: library: design library

// below: answered sequences
SEQUENCE ENTRY | growth estimate
VADDIWAELLSEDL | 8.23
MLSSHGFSVDTSALLDLFPP | -0.106
MLSSHGGSVDTSALLDLFSP | -0.112

Here are 2 sequences. What values of growth estimate were reported for them?
1. LFDYDFLFGNDFP
2. EFRDLLDLDFILSN

Result:
1: 15.5; 2: 0.421

Here are 4 sequences. What values of growth estimate were reported for them?
1. GLDESWDYIFETTE
2. DLDESWDRIFETTE
3. EDLYSILWSDGY
4. LFDYDFLFGNDRA

Result:
1: 1.28; 2: < -0.25; 3: 0.303; 4: 0.389

###

Test system: Saccharomyces cerevisiae PS128 hsf1 delta, HSF1(1-493) fusion
Experiment: growth estimate (transactivation domain function in HSF1 fusion, heat-shock survival) (a.u. (slope of normalised read count over time)); higher = stronger growth at 37°C, i.e. more transactivation activity
Conditions: library: design library
READOUT KIND: growth estimate
Answers are plain numbers.

SEQUENCE ENTRY | growth estimate
DELSWIIELLEADG | 1.64

Here are 4 sequences. What values of growth estimate were reported for them?
1. DFDLDMLGDFDLGMLG
2. DFDLDMLGDFDLDMRG
3. GFNDLLDLDFILSN
4. DELSWIIELPEKDG

Result:
1. 0.517
2. 6.95
3. -0.0099
4. -0.237

Here are 4 sequences. What values of growth estimate were reported for them?
1. TGDDVYNYLFDD
2. PEFPAIELQELQELQALLQQ
3. DELGWIIELLEKDG
4. MLSSHGFSVDPSALLDLFSP

Result:
[-0.0152, -0.181, -0.244, -0.0885]
